assay: viability loss with induced miR-34 in A549 – imaging, A549 dox-inducible miR-34, nuclei and caspase counts, primary screen (AID 1347080); details: A549 miR-34 inducible, Hoechst nuclei count, 48 h; measured here: total cells without miR-34 induction
For each of the molecules below, state its cell count.
Please reply with the value in numeric form only.

Q: Any idea what cell count was measured for Cc1ccc(-n2sc(=O)n(Cc3ccc(F)cc3)c2=O)cc1 ?
Ans: 8790

Q: Note, next up: NC(=O)c1noc(C(CCCC2CCCCC2)CC(=O)NO)n1 (configuration not stated)
Ans: 8580

Q: Note, next up: CC[C@@H]1Cc2cc(O)ccc2C2=C1c1ccc(O)cc1C[C@H]2CC
Ans: 3520

Q: Note, next up: Cc1ccc(S(=O)(=O)n2c(N)nc3ccccc32)cc1
Ans: 6440

Q: Note, next up: CN(CC[C@@H](Oc1ccc(C(F)(F)F)cc1)c1ccccc1)CC(=O)O
Ans: 10300

Q: Note, next up: S=C(Nc1ccccc1)Nc1nccs1
Ans: 5760

Q: Note, next up: COc1ccc2cc([C@@H](C)C(=O)O)ccc2c1
Ans: 8450

Q: Note, next up: CC1CNc2c(cccc2S(=O)(=O)NC(CCCN=C(N)N)C(=O)N2CCC(C)CC2C(=O)O)C1 (configuration not stated)
Ans: 10500

Q: Note, next up: Cc1cn(C2CC(O)C(CO)O2)c(=O)[nH]c1=O (configuration not stated)
Ans: 9310

Q: Note, next up: CNc1ncnc2c1ncn2[C@@H]1O[C@H](CO)[C@@H](O)[C@H]1O
Ans: 9420

Q: Note, next up: CN1[C@@H](C[C@H](O)c2ccccc2)CCC[C@H]1CC(=O)c1ccccc1
Ans: 10200

Q: Note, next up: Cn1ccnc1
Ans: 10000

* * *

assay: human hepatoma cell viability loss – ATP luminescence, cytotoxicity control for P. falciparum antimalarial project, primary screen (AID 2303); conditions: HepG2 viability, 24-48 h, at 10 µM, stronger effect = higher value;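 further: 0% = DMSO wells and 100% = digitonin-killed cells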
For each of the molecules below, state its inhibition.
The response must be a number in % with no trailing unit.

Q: Any idea what inhibition was measured for COc1ccc(Nc2nc(NN=Cc3ccc(O)cc3)nc(Nc3ccc([N+](=O)[O-])cc3)n2)cc1 ?
Ans: -1

Q: Note, next up: CN(C)c1nc(NN=Cc2cc(Cl)ccc2O)nc(Nc2ccc(F)cc2)n1
Ans: 32

Q: Note, next up: Nc1c2c(nc3ccccc13)C(=Cc1ccc(O)cc1)CCC2
Ans: 9

Q: Note, next up: CCC[C@@H](C(=O)NCCc1cccc(OC)c1)N1C(=O)c2c(ccc(OC)c2OC)C1C(=O)Nc1c(C)cccc1C (stereo not given in full)
Ans: 6

Q: Note, next up: CCN1CCN(c2cc(C)c3cc(NC(=O)c4ccc(C(C)(C)C)cc4)ccc3n2)CC1
Ans: 34

Q: Note, next up: Oc1ccc(-c2nc(-c3ccc4oc5ccc(-c6[nH]c(-c7ccc(O)cc7)nc6-c6ccccc6)cc5c4c3)c(-c3ccccc3)[nH]2)cc1
Ans: -2

Q: Note, next up: COc1ccc2nc(C)cc(NN=Cc3cc(C)ccc3O)c2c1
Ans: 78

Q: Note, next up: CCOc1cc(C=NNc2nc(C)cc(-n3nc(C)cc3C)n2)ccc1O
Ans: 46

Q: Note, next up: O=C(NN=Cc1nc2ccccc2[nH]1)c1cccc([N+](=O)[O-])c1
Ans: -3

Q: Note, next up: CC(C)C[C@@H](C(=O)N[C@H](C(=O)Nc1nccs1)C(C)(C)C)[C@H](CCC(F)(F)F)N(O)C=O
Ans: 11
